- Test system: HOP-62
- measurement_protocol: NCI tumour cell line growth inhibition, 48 h
The source made the active and inactive calls. Rule as the data show it: active = GI50 up to about 1.1 µM and inactive = higher.
assay_endpoint: GI50

> print(dat)
                                   compound  assay.endpoint         test.result
1     O=C(CCc1nnc(S)[nH]1)Nc1ccc(Cl)c(Cl)c1            GI50    20 µM (inactive)
2  CCCCCCCCOCC(CO)OCCCCCCCC (stereo not drawn)            GI50  21.6 µM (inactive)
3    Cc1ccc(NC(=O)CSc2nc(O)nc3[nH]cnc23)cc1            GI50  48.5 µM (inactive)

---

- Tested on: COLO 205
- measurement_protocol: NCI tumour cell line growth inhibition, 48 h
Activity calls are given as the source filed them. Rule as the data show it: active = GI50 up to about 1.1 µM and inactive = higher.
Outcomes: y for active, n for inactive

> print(dat)
                                    compound    target  answer.label
 1        O=C(/C=C/C(Cl)(Cl)Cl)Nc1ccc(Cl)cc1  COLO 205             n
 2  OCC1C2CCC3(OCCO3)C12 (configuration not stated)  COLO 205             n
 3  CCN(CC)CC(=O)Nc1ccc2c(c1)C(=O)c1ccc(NC(=O)CN(CC)CC)cc1C2=O  COLO 205             n
 4        NC(=O)NNC(=O)NC12CC3CC(CC(C3)C1)C2  COLO 205             n
 5             Nc1nnc(-c2ccco2)c(-c2ccco2)n1  COLO 205             n
 6   Clc1cc2c(c(CSC3=NCN(CC4CC4)CN3)c1)OCOC2  COLO 205             n
 7  O=C(Cn1c2ccc(Br)cc2c2nc3ccccc3nc21)NC1CCCCC1  COLO 205             n
 8      COc1cc(/C=C/C(=O)C(C)(C)C)cc(OC)c1OC  COLO 205             n
 9  COc1ccc(OC)c(C#Cc2ccc(OC)c(C(=O)NCCc3ccc(F)cc3)c2)c1  COLO 205             n
10         O=C(NCCNCCNC(=O)C(F)(F)F)C(F)(F)F  COLO 205             n
11  CCN(CC)CCNC(=O)c1ccc(C)c(OCc2ccccc2)c1[N+](=O)[O-]  COLO 205             n
12                     CCOC(=O)Nc1nn[nH]c1Cl  COLO 205             n
13  Cc1[nH]c2ccccc2c1C1=CC(=O)N(c2ccccc2)C1=O  COLO 205             n
14  C=C1CC(C/C=C(\C)CC2CC(=C)C(=O)O2)OC1=O (configuration not stated)  COLO 205             n
15  Cc1ccc(Nc2n[nH]c(NS(=O)(=O)c3cc(C(=O)Nc4ccc(Cl)cc4)c(Cl)cc3S)n2)cc1  COLO 205             n
16  CC(C)(C)OC(=O)N[C@H]1CC(=O)c2ccccc2N(CC(=O)O)C1=O  COLO 205             n
17  O=[N+]([O-])c1ccc(N/N=C/c2ccc(OCCCCCCCCCCCO)cc2)c([N+](=O)[O-])c1  COLO 205             n
18  Cc1cc(Cl)ccc1NC(=O)C(=O)Cc1ccc([N+](=O)[O-])c([N+](=O)[O-])c1CC(=O)C(=O)Nc1ccc(Cl)cc1C  COLO 205             n
19  O=C(Cc1c(C(=O)Nc2ccccc2)sc(C(=O)Nc2ccccc2)c1CC(=O)Nc1ccccc1)Nc1ccccc1  COLO 205             n
20        c1cc2c(cc1C(N1CCNCC1)N1CCNCC1)OCO2  COLO 205             n
21  CCCCCCCCOCC(CO)OCCCCCCCC (configuration not stated)  COLO 205             n
22  Cn1cc(NC(=O)c2cc(NC(=O)Nc3cc(C(=O)Nc4cc(C(=O)NCCC(=N)N)n(C)c4)n(C)c3)cn2C)cc1C(=O)NCCC(=N)N  COLO 205             n
23  Cc1cc(N2CCOCC2)nc2ccc(Cc3ccc4nc(N5CCOCC5)cc(C)c4c3)cc12  COLO 205             n
24  COc1cccc2c1C(=O)c1c(O)c3c(c(O)c1C2=O)C[C@H](O)C[C@@H]3OC1CC(N)C(O)C(C)O1 (some centres not stated)  COLO 205             y
25  CC(NNC(=O)c1cc[n+]([BH2-]C#N)cc1)c1cccc(C(F)(F)F)c1 (configuration not stated)  COLO 205             n
26  CC1OC2(CC(OCc3ccccc3)C1OCc1ccccc1)OCCO2 (configuration not stated)  COLO 205             n
27  OCCN=C1c2ccccc2C2C(c3ccccc31)C1c3ccccc3C(=NCCO)c3ccccc3C21 (configuration not stated)  COLO 205             n
28  c1nc(N2CC2)c2cnn(C3CCCCO3)c2n1 (configuration not stated)  COLO 205             n
29  COc1cc2oc(=O)ccc2cc1C1OC(=O)C2OC21C (configuration not stated)  COLO 205             n
30  COC(=O)C(Cc1ccccc1)NP(=O)(O)OCC1OC(n2cc(I)c(=O)[nH]c2=O)CC1O (configuration not stated)  COLO 205             n
31     CN(C)C(=O)C1CCN(Cc2c[nH]c3ccccc23)CC1  COLO 205             n
32  COC(=O)c1ccc(/N=N/N(C)COc2ccc([N+](=O)[O-])cc2)cc1  COLO 205             n
